Test system: S. aureus RN450
Assay: In Vitro Anti-Bacterial Activity Assay (MIC), gram positive
Format: cell-based
Details: Staphylococcus aureus, RN450, 18 h, gram positive bacteria; read-out: Antibiotic Activity Gram + (MIC)
measured endpoint: MIC

>>> obs_value("CN(C)CCN(C)Cc1ccc(-c2cc(N(C)C)c3c(c2O)C(=O)C2=C(O)[C@]4(O)C(=O)C(C(N)=O)=C(O)[C@@H](N(C)C)[C@@H]4C[C@@H]2C3)[nH]1")
"> 4 µg/mL"
>>> obs_value("CN(C)[C@@H]1C(O)=C(C(N)=O)C(=O)[C@@]2(O)C(O)=C3C(=O)c4c(O)ccc(N5CCOCC5)c4C[C@H]3C[C@@H]12 [drawing 3548]")
"< 4 µg/mL"
>>> obs_value("CCc1cc(CNC(=O)N2CCOCC2)c2c(c1O)C(=O)C1=C(O)[C@]3(O)C(=O)C(C(N)=O)=C(O)[C@@H](N(C)C)[C@@H]3C[C@@H]1C2")
"> 4 µg/mL"
>>> obs_value("CCN(Cc1ccccc1)Cc1cc(N(C)C)c2c(c1O)C(=O)C1=C(O)[C@]3(O)C(=O)C(C(N)=O)=C(O)[C@@H](N(C)C)[C@@H]3C[C@@H]1C2")
"< 4 µg/mL"
>>> obs_value("CN(C)Cc1cc(-c2ccoc2)c2c(c1O)C(=O)C1=C(O)[C@]3(O)C(=O)C(C(N)=O)=C(O)[C@@H](N(C)C)[C@@H]3C[C@@H]1C2")
"< 4 µg/mL"
>>> obs_value("COC(=O)c1ccc(O)c2c1C[C@H]1C[C@H]3[C@H](N(C)C)C(O)=C(C(N)=O)C(=O)[C@@]3(O)C(O)=C1C2=O")
"< 4 µg/mL"
